# targetSystem: L-lactate dehydrogenase (Bc-LDH) (Bacillus cereus, UniProt Q81EP4)
# Construct: full-length, 314 amino acids (GenBank BDI00612.1), recombinant from pET28-Bc-LDH in E. coli BL21 (DE3)
# Sequence (Q81EP4 whole entry): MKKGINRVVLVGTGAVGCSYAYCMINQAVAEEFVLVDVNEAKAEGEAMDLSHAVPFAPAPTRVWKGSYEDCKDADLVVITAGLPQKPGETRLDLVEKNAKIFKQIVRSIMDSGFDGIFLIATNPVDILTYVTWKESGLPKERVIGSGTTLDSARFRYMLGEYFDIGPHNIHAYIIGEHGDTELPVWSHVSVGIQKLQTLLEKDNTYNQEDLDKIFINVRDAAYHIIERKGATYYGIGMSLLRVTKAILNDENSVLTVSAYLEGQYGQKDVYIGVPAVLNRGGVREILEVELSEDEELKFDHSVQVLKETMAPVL
# protocolNotes: LDH activity assay (NADH absorbance at […] nm) of purified enzyme; Lineweaver-Burk and Dixon plots
propertyName: pKi
Please keep in mind that pKi is minus log10 of the molar concentration; only the number is needed.

Which pKi is reported for this molecule? O=c1c2cc(O)c(O)cc2oc2cc(O)c([C@@H]3O[C@H](CO)[C@@H](O)[C@H](O)[C@H]3O)c(O)c12 [mangiferin]
4.12
